Each recorded value in this set is attributed to ChEMBL document CHEMBL2176969.

assay: Induction of nitrite release in phosphate buffer at pH 7.4 at 50 uM after 1.5 hrs by Griess reaction; type: physicochemical; conditions: pH 7.4, 1.5 h
So I've got a bunch of compounds here, and I need their Activity values.
Could you give me the number in %? Just the number is fine.

Q. Dear colleague, please send me the reported Activity for `CC(C)N(C(=O)OC(C)(C)C)/[N+]([O-])=N/OCCS(C)(=O)=O` when you can.
A. 28.6

Q. Identify the reported Activity for the following entry. `CONS(=O)(=O)CCO/N=[N+](\[O-])NC(C)C`
A. 0.8

Q. Give reported Activity value for `CC(C)N[N+]([O-])=N[O-].[Na+]`
A. 62

Q. Output measured Activity for this item: `COS(=O)(=O)CCO/N=[N+](\[O-])NC(C)C`
A. 10.6

Q. Supply Activity value. Item: `CC(C)N/[N+]([O-])=N/OCCS(C)(=O)=O`
A. 1.8

Q. Identify Activity associated with the compound `CC(C)N/[N+]([O-])=N/OCCS(=O)(=O)NOCc1ccccc1`
A. 6

Q. Dear colleague, please send me the reported Activity for `CC(C)N/[N+]([O-])=N/OCS(C)(=O)=O` when you can.
A. 0.4
